System: wildtype feline IL-31
Sequence (as listed by the source): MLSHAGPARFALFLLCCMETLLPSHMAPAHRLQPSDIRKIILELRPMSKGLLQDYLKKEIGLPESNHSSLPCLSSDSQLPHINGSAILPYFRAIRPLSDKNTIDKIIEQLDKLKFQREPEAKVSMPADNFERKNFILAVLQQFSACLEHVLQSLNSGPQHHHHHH
Test: Indirect ELISA, binding to wildtype feline IL-31

{"molecule": "ZIL69: fully canine anti IL-31 antibody, VH SEQ ID NO: 91, VL SEQ ID NO: 93 (antibody, listed as Canis familiaris, V domains shown) VH: EVQLVESGGDLVKPAGSLRLSCVASGFTFSSYAMKWVRQAPGKGLQWVATINNDGTRTGYADAVRGRFTISKDNAKNTLYLQMDSLRADDTAVYYCTKGNAESGCTGDHCPPYWGQGTLVTVSS VL: SSVLTQPPSVSVSLGQTATISCSGESLNKYYAQWFQQKAGQAPVLVIYKDTERPSGIPDRFSGSSAGNTHTLTISGARAEDEADYYCESAVSSETNVFGSGTQLTVL", "binding to wildtype feline IL-31 (ELISA)": "capable of binding"}
{"molecule": "ZIL8: fully canine anti IL-31 antibody, VH SEQ ID NO: 79, VL SEQ ID NO: 81 (antibody, listed as Canis familiaris, V domains shown) VH: EVQLVESGGDLVKPAGSLRLSCVASGFTFSDYAMSWVRQAPGRGLQWVAGIDSVGSGTSYADAVKGRFTISRDDAKNTLYLQMFNLRAEDTAIYYCASGFPGSFEHWGQGTLVTVSS VL: QSVLTQPASVSGSLGQKVTISCTGSSSNIGSGYVGWYQQLPGTGPRTLIYYNSDRPSGVPDRFSGSRSGTTATLTISGLQAEDEADYYCSVYDRTFNAVFGGGT", "binding to wildtype feline IL-31 (ELISA)": "capable of binding"}

These data points were gathered from patent US11433139B2.
